# Tested on: panel of trained testers
# experimental-details: Taste profile of the pure substance in saline or sugar solution, tasting by a panel of trained testers
# Format: in vivo, human
# condition-summary: pure substance in saline or sugar solution
quantity: Taste profile

CNC(=O)C(=O)NC/C=C(/C)CCC=C(C)C [formula (IV)] = sour
